Target: T1, RANKL expressed on the surface of 293 cells (UniProt O14788 1-317, limits assumed)
T1 construct: whole, on cells; also called RANKL-transfected 293 cells; cells expressing RANKL
T1 sequence (looked up): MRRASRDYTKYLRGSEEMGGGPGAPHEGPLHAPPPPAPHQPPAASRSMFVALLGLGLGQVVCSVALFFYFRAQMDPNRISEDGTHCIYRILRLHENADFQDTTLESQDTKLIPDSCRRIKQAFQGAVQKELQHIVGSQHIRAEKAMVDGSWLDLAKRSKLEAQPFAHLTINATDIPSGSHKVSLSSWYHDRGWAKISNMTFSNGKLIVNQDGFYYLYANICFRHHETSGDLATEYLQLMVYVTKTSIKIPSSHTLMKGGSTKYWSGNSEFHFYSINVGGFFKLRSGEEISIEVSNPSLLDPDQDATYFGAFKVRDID
Assay: flow cytometry (MFI) on RANKL-transfected 293 cells
READOUT TYPE: EC50 (µg/mL)

{"BINDER": "clone EBI-51-2 rabbit anti-RANKL antibody (antibody, V domains shown) VH: QSLEESGGRLVTPGTPLTLTCTASGFTISTDVISWVRQAPGKGLEWIGYTWSGGSTYYANWAKGRFTLSKTSSTTVDLKITSPTIEDTATYFCARGFNPFDPWGPGTLVTVSS VL: DMIQTPASVSEPVGGTVTIVCQASQNIGSNFAWYQQKPGQPPKLLIYRASTLASGVSSRFKGSGFGTQFTLTISDLECADAATYYCQQGYSAGNVDNNFGGGTEVVVK", "UNIT OF MEASUREMENT": "µg/mL", "EXPERIMENTAL RESULT": 0.0621}
